# assay-overview: Volume of distribution at steady state in Sprague-Dawley rat at 1 mg/kg, iv by LC-MS/MS analysis
# Format: ADME, organism-based
# study-conditions: in vivo, read-out: Vdss
Give Vd for every item shown.

Request: # Vd lookup, item "C[C@@H](c1cccc([C@H](C)C2CC2)c1O)C1CC1"
Response: 1.92 L/kg

Request: # Vd lookup, item CC(C)c1cccc([C@H](C)C2CC2)c1O [CIPEPOFOL]
Response: 2.02 L/kg

Request: # Vd lookup, item CC(C)c1cccc(C(C)C)c1O [PROPOFOL]
Response: 5.23 L/kg

Request: # Vd lookup, item "CC[C@@H](C)c1cccc([C@H](C)C2CC2)c1O"
Response: 3.23 L/kg

###

# assay-overview: Clearance in Sprague-Dawley rat at 1 mg/kg, iv by LC-MS/MS analysis
# Format: ADME, organism-based
# study-conditions: in vivo
Give clearance for every item shown.
// return numeric value only (unit: mL/min/kg, not printed)

Request: # clearance lookup, item "C[C@@H](c1cccc([C@H](C)C2CC2)c1O)C1CC1"
Response: 95

Request: # clearance lookup, item "CC(C)c1cccc([C@H](C)C2CC2)c1O"
Response: 100

Request: # clearance lookup, item "CC[C@@H](C)c1cccc([C@H](C)C2CC2)c1O"
Response: 208

###

# Species: Rattus norvegicus
# assay-overview: Displacement of [35S]TBPS from GABAA receptor in Wistar rat cerebral cortex membranes at 1 uM after 3 hrs by scintillation counting method
# study-conditions: Membrane
Give inhibition for every item shown.

Request: # inhibition lookup, item "C[C@@H](c1cccc([C@H](C)C2CC2)c1O)C1CC1"
Response: 64%

Request: # inhibition lookup, item "CC[C@@H](C)c1cccc([C@H](C)CC)c1O"
Response: 0%

Request: # inhibition lookup, item CCC(C)c1cccc(C(C)C2CC2)c1O (racemic)
Response: -3%

Request: # inhibition lookup, item "CC(C)c1cccc([C@@H](C)C2CC2)c1O"
Response: 3%

Request: # inhibition lookup, item "CC[C@@H](C)c1cccc([C@H](C)C2CC2)c1O"
Response: 23%

Request: # inhibition lookup, item "CC[C@H](C)c1cccc([C@@H](C)C2CC2)c1O"
Response: 5%

Request: # inhibition lookup, item "C[C@H](c1cccc([C@H](C)C2CC2)c1O)C1CC1"
Response: -5%

Request: # inhibition lookup, item CC(c1cccc(C(C)C2CC2)c1O)C1CC1 (racemic)
Response: 13%

Request: # inhibition lookup, item "CC[C@@H](C)c1cccc([C@@H](C)C2CC2)c1O"
Response: -1%

Request: # inhibition lookup, item "CC[C@H](C)c1cccc([C@H](C)C2CC2)c1O"
Response: -9%

Request: # inhibition lookup, item CC(C)c1cccc([C@H](C)C2CC2)c1O [CIPEPOFOL]
Response: 34%

###

# assay-overview: Toxicity in Sprague-Dawley rat
# study-conditions: in vivo
quantity-measured: LD50 (mg/kg)
// return numeric value only (unit: mg/kg, not printed)

Request: # LD50 lookup, item "C[C@@H](c1cccc([C@H](C)C2CC2)c1OCOP(=O)([O-])[O-])C1CC1.[Na+].[Na+]"
Response: 40.4

Request: # LD50 lookup, item CC(C)c1cccc(C(C)C)c1OCOP(=O)([O-])[O-].[Na+].[Na+] [FOSPROPOFOL DISODIUM]
Response: 189
